Test summary: Toxicokinetics of patidegib and metabolite IPI-230 in plasma after twice daily dermal application for 13 weeks
Assay type: in vivo, Gottingen Minipig
Experimental conditions: female, Gottingen, minipig, plasma, topical or ocular, 40 mg/kg/day, Gottingen Minipig plasma, Day 90, Group 3, 40 mg/kg/day dermal twice daily, sex F

Compound structure	Cmax (ng/mL)
CC1=C2C[C@H]3[C@@H](CC[C@@H]4C[C@H](NS(C)(=O)=O)CC[C@@]43C)[C@@H]2CC[C@@]2(C1)O[C@@H]1C[C@H](C)CN[C@H]1[C@H]2C	35

* * *

Test summary: Toxicokinetics of patidegib and metabolite IPI-230 in plasma after twice daily dermal application for 13 weeks
Type: in vivo, Gottingen Minipig
Experimental conditions: female, Gottingen, minipig, plasma, topical or ocular, 40 mg/kg/day, Gottingen Minipig plasma, Day 90, Group 3, 40 mg/kg/day dermal twice daily, sex F; read-out: Mean Patidegib AUC0-24

Compound	AUC(0-t)
CC1=C2C[C@H]3[C@@H](CC[C@@H]4C[C@H](NS(C)(=O)=O)CC[C@@]43C)[C@@H]2CC[C@@]2(C1)O[C@@H]1C[C@H](C)CN[C@H]1[C@H]2C [patidegib]	526 ng·h/mL

* * *

Test summary: Toxicokinetics of patidegib and metabolite IPI-230 in plasma after twice daily dermal application for 13 weeks
Type: in vivo, Gottingen Minipig
Experimental conditions: both sexes, Gottingen, minipig, plasma, topical or ocular, 80 mg/kg/day, Gottingen Minipig plasma, Day 14, Group 4, 80 mg/kg/day dermal twice daily, sexes combined MF; read-out: Mean Patidegib AUC0-24
Procedure: A study was conducted to evaluate the toxicokinetics of patidegib when administered twice daily via dermal application for 13 weeks. As described in Example 11, the formulation identified herein as SS14 was prepared, with patidegib concentrations of 2% and 4%. […] The formulation identified herein as SS14 was prepared, with 2% patidegib and with 4% patidegib. […] Only the 2-hour samples from the untreated and placebo groups were analyzed. […]

Compound structure	AUC(0-t) / ng·h/mL
CC1=C2C[C@H]3[C@@H](CC[C@@H]4C[C@H](NS(C)(=O)=O)CC[C@@]43C)[C@@H]2CC[C@@]2(C1)O[C@@H]1C[C@H](C)CN[C@H]1[C@H]2C	4110

* * *

Test summary: Toxicokinetics of patidegib and metabolite IPI-230 in plasma after twice daily dermal application for 13 weeks
Format: in vivo, Gottingen Minipig
Experimental conditions: male, Gottingen, minipig, plasma, topical or ocular, 80 mg/kg/day, Gottingen Minipig plasma, Day 14, Group 4, 80 mg/kg/day dermal twice daily, sex M; read-out: Mean Patidegib AUC0-24
Assay readout: AUC(0-t)

Compound structure	Assay readout	Result
CC1=C2C[C@H]3[C@@H](CC[C@@H]4C[C@H](NS(C)(=O)=O)CC[C@@]43C)[C@@H]2CC[C@@]2(C1)O[C@@H]1C[C@H](C)CN[C@H]1[C@H]2C	AUC(0-t)	1390 ng·h/mL
